Tested on: CD2F1 mice, L1210 leukemia ip, survival T/C
Method summary: NCI In Vivo Anticancer Drug Screen. Data for tumor model L1210 Leukemia (intraperitoneal) in CD2F1 (CDF1) mice
Condition summary: endpoint: mean survival time; dose: 100.0 mg/kg/injection; schedule: Q04DX002 (ip); vehicle: saline with Tween-80; higher = longer survival
Description: The antitumor activity of compounds was measured in mice bearing transplantable tumors. Survival or tumor size were measured and the results are expressed as the measurement made in the treated group (T) divided by the measurement made in the vehicle treated control group (C). The tumor model used in this assay is L1210 Leukemia (intraperitoneal) in CD2F1 (CDF1) mice
Inconclusive results and toxic doses are left out.
Property: T/C

Here's what some known entries look like.
In: For the molecule COc1ccc(NC(=O)Oc2cccc(C)c2)cc1 , what T/C is on record?
Out: 90 % of control

In: Next record, please: C[n+]1cccc(C(=O)N/N=C/CCc2ccccc2)c1
Out: 101 % of control

In: Next record, please: COc1ccc(C(=O)CN(C)S(=O)(=O)c2ccc(C)cc2)cc1
Out: 97 % of control

Now consider a different molecule.
In: For the molecule CCOC(=O)/C=C(C)/C=C/C1C(C)=CCCC1(C)C (centres undefined) , what T/C is on record?
Out: 103 % of control
